Just for reference, patent US9179674B2 is where these values come from.

Please go through the items and note down their pest or weed control at 100 ppm.
Test system: Puccinia triticina
Assay Overview: Wheat Brown Rust fungicidal activity (PUCCRT)
Assay type: in vivo
Condition Summary: Puccinia triticina, 72 h, 3 Day Curative, rate 100 ppm, read-out: Disease control PUCCRT 3DC

Consider the reported pest or weed control at 100 ppm for these compounds:
COc1ccnc(C(=O)N[C@H]2COC[C@H](CC3CCCC3)[C@@H](OCC(C)C)[C@H](C)OC2=O)c1O : 80 to 100%
COc1ccnc(C(=O)N[C@H]2COC[C@H](CCC(C)C)[C@@H](Oc3ccc(C)cc3)[C@H](C)OC2=O)c1O : 0 to 80%
COc1ccnc(C(=O)N[C@H]2COC[C@H](Cc3ccc(F)cc3)[C@@H](OC(=O)C3CC3)[C@H](C)OC2=O)c1O : 80 to 100%

Give one value of pest or weed control at 100 ppm per listed compound.
1. CCCCCO[C@@H]1[C@@H](Cc2cccc3ccccc23)COC[C@H](NC(=O)c2nccc(OC)c2O)C(=O)O[C@H]1C
2. COc1ccnc(C(=O)N[C@H]2COC[C@H](Cc3cccc4ccccc34)[C@@H](OC(=O)C(C)C)[C@H](C)OC2=O)c1OCOC(C)=O
3. COc1ccnc(C(=O)N[C@H]2COC[C@H](Cc3ccc(C(F)(F)F)cc3)[C@@H](OC(=O)C3CC3)[C@H](C)OC2=O)c1OCOC(C)=O
4. COc1ccnc(C(=O)N[C@H]2COC[C@H](Cc3ccc(F)cc3)[C@@H](OC(=O)C(C)C)[C@H](C)OC2=O)c1OC(C)=O
5. COc1ccnc(C(=O)N[C@H]2COC[C@H](Cc3ccc(C)cc3)[C@@H](OC(=O)C(C)C)[C@H](C)OC2=O)c1OCOC(C)=O

1: 0 to 80%; 2: 80 to 100%; 3: 80 to 100%; 4: 80 to 100%; 5: 80 to 100%

For every listed record, write down its pest or weed control at 100 ppm.
1. COc1ccnc(C(=O)N[C@H]2COC[C@H](Cc3ccc(F)cc3)[C@@H](OC3CCCC3)[C@H](C)OC2=O)c1O
2. COc1ccnc(C(=O)N[C@H]2COC[C@H](CC(F)(F)F)[C@@H](OC3CCCC3)[C@H](C)OC2=O)c1OCOC(C)=O
3. COc1ccnc(C(=O)N[C@H]2COC[C@H](CCc3ccccc3)[C@@H](OC(=O)C3CC3)[C@H](C)OC2=O)c1OCOC(=O)C(C)C
4. COc1ccnc(C(=O)N[C@H]2COC[C@H](CCC(C)C)[C@@H](OC3CCCC3)[C@H](C)OC2=O)c1OC(C)=O
5. COc1ccnc(C(=O)N[C@H]2COC[C@H](CCC(C)C)[C@@H](OCC(C)C)[C@H](C)OC2=O)c1OC(C)=O

["80 to 100%", "80 to 100%", "80 to 100%", "80 to 100%", "80 to 100%"]

----------
Hi there, I'd appreciate the recorded pest or weed control at 100 ppm for every entry that follows.
System: Puccinia triticina
Assay Overview: Wheat Brown Rust fungicidal activity (PUCCRT)
Type: in vivo
Condition Summary: Puccinia triticina, 72 h, 3 Day Curative, rate 100 ppm, read-out: Disease control PUCCRT 3DC

COc1ccnc(C(=O)N[C@H]2COC[C@H](Cc3cccc4ccccc34)[C@@H](OC(=O)C(C)C)[C@H](C)OC2=O)c1O : 0 to 80%
CCCCCO[C@@H]1[C@@H](Cc2ccc(C)cc2)COC[C@H](NC(=O)c2nccc(OC)c2OCOC(C)=O)C(=O)O[C@H]1C : 80 to 100%
COc1ccnc(C(=O)N[C@H]2COC[C@H](Cc3cccc4ccccc34)[C@@H](Oc3ccc(C)cc3)[C@H](C)OC2=O)c1OCOC(C)=O : 0 to 80%

Consider now this further molecule.
Notebook: `COc1ccnc(C(=O)N[C@H]2COC[C@H](CC(F)(F)F)[C@@H](OCC(C)C)[C@H](C)OC2=O)c1OCOC(C)=O` , pest or weed control at 100 ppm read as 80 to 100%

----------
System: Puccinia triticina
Assay Overview: Wheat Brown Rust fungicidal activity (PUCCRT)
Assay type: in vivo
Condition Summary: Puccinia triticina, 24 h, 1 Day Protectant, rate 100 ppm, read-out: Disease control PUCCRT 1DP
Task for the reader: assign each of the following compounds its reported pest or weed control at 100 ppm.

Previously resolved entries follow.
COc1ccnc(C(=O)N[C@H]2COC[C@H](Cc3ccc(C)cc3)[C@@H](OCCCC(F)(F)F)[C@H](C)OC2=O)c1OC(C)=O : 80 to 100%
COc1ccnc(C(=O)N[C@H]2COC[C@H](Cc3ccc(Cl)cc3Cl)[C@@H](OC(=O)C(C)C)[C@H](C)OC2=O)c1OCOC(C)=O : 80 to 100%
COc1ccnc(C(=O)N[C@H]2COC[C@H](CC(F)(F)F)[C@@H](OCC(C)C)[C@H](C)OC2=O)c1OCOC(C)=O : 80 to 100%
CCOCC(=O)OCOc1c(OC)ccnc1C(=O)N[C@H]1COC[C@H](CC2CCCC2)[C@@H](OC(=O)C(C)C)[C@H](C)OC1=O : 80 to 100%
COc1ccnc(C(=O)N[C@H]2COC[C@H](Cc3cccc4ccccc34)[C@@H](Oc3ccc(C)cc3)[C@H](C)OC2=O)c1OCOC(C)=O : 80 to 100%

Then there is this compound:
# pest or weed control at 100 ppm measured on Puccinia triticina for item `CCCCCO[C@@H]1[C@@H](Cc2ccc(C(F)(F)F)cc2)COC[C@H](NC(=O)c2nccc(OC)c2O)C(=O)O[C@H]1C` = 0 to 80%

----------
Kindly supply the reported pest or weed control at 100 ppm values for the records listed here.
System: Erysiphe cichoracearum
Assay Overview: Powdery Mildew of Cucumber fungicidal activity (ERYSCI)
Type: in vivo
Condition Summary: Golovinomyces cichoracearum, 24 h, 1 Day Protectant, read-out: Disease Control ERYSCI 1DP

Take a look at these entries with their results.
COc1ccnc(C(=O)N[C@H]2COC[C@H](Cc3ccc(Cl)cc3Cl)[C@@H](OC(=O)C(C)C)[C@H](C)OC2=O)c1OC(C)=O : 0 to 80%
COc1ccnc(C(=O)N[C@H]2COC[C@H](Cc3ccc(F)cc3)[C@@H](OCC(C)C)[C@H](C)OC2=O)c1OCOC(C)=O : 80 to 100%
COc1ccnc(C(=O)N[C@H]2COC[C@H](CC3CCCC3)[C@@H](OC(=O)C(C)C)[C@H](C)OC2=O)c1OCOC(C)=O : 80 to 100%
COc1ccnc(C(=O)N[C@H]2COC[C@H](CCC(C)C)[C@@H](OC(=O)C3CC3)[C@H](C)OC2=O)c1OCOC(C)=O : 80 to 100%
CCCCCO[C@@H]1[C@@H](Cc2ccc(Cl)cc2Cl)COC[C@H](NC(=O)c2nccc(OC)c2OC(=O)CCOC)C(=O)O[C@H]1C : 80 to 100%

// input: 7 compounds below; output: pest or weed control at 100 ppm for each
1. COc1ccnc(C(=O)N[C@H]2COC[C@H](Cc3ccc(C)cc3)[C@@H](OCC(C)C)[C@H](C)OC2=O)c1OCOC(C)=O
2. COc1ccnc(C(=O)N[C@H]2COC[C@H](Cc3ccc(F)cc3)[C@@H](OCC(C)C)[C@H](C)OC2=O)c1OC(C)=O
3. COc1ccnc(C(=O)N[C@H]2COC[C@H](CCc3ccccc3)[C@@H](OCC(C)C)[C@H](C)OC2=O)c1OCOC(C)=O
4. CCCCCO[C@@H]1[C@@H](Cc2ccc(Cl)cc2Cl)COC[C@H](NC(=O)c2nccc(OC)c2OCOC(=O)COCC)C(=O)O[C@H]1C
5. COc1ccnc(C(=O)N[C@H]2COC[C@H](Cc3ccc(C)cc3)[C@@H](OCC(C)C)[C@H](C)OC2=O)c1OC(C)=O
6. COc1ccnc(C(=O)N[C@H]2COC[C@H](CCC(C)C)[C@@H](OCCCC(F)(F)F)[C@H](C)OC2=O)c1OCOC(C)=O
7. COc1ccnc(C(=O)N[C@H]2COC[C@H](CC(F)(F)F)[C@@H](OC3CCCC3)[C@H](C)OC2=O)c1OCOC(C)=O

80 to 100%
80 to 100%
0 to 80%
0 to 80%
80 to 100%
80 to 100%
0 to 80%

Record summary for `COc1ccnc(C(=O)N[C@H]2COC[C@H](Cc3ccc(Cl)cc3Cl)[C@@H](OC(=O)C(C)C)[C@H](C)OC2=O)c1OCOC(C)=O` : reported pest or weed control at 100 ppm = 0 to 80%

----------
Test system: Puccinia triticina
Assay Overview: Wheat Brown Rust fungicidal activity (PUCCRT)
Type: in vivo
Condition Summary: Puccinia triticina, 72 h, 3 Day Curative, rate 100 ppm, read-out: Disease control PUCCRT 3DC
Metric: pest or weed control at 100 ppm

COc1ccnc(C(=O)N[C@H]2COC[C@H](Cc3ccc(F)cc3)[C@@H](OC(=O)C3CC3)[C@H](C)OC2=O)c1OCOC(C)=O : 80 to 100%

Dear colleague, could you please provide pest or weed control at 100 ppm for the compounds listed below?
1. COc1ccnc(C(=O)N[C@H]2COC[C@H](Cc3cc(F)c(F)c(F)c3)[C@@H](OCC(C)C)[C@H](C)OC2=O)c1OCOC(C)=O
2. CCCCCO[C@@H]1[C@@H](CC2CCCC2)COC[C@H](NC(=O)c2nccc(OC)c2OCOC(C)=O)C(=O)O[C@H]1C
3. COc1ccnc(C(=O)N[C@H]2COC[C@H](Cc3ccc(Cl)cc3Cl)[C@@H](OCC(C)C)[C@H](C)OC2=O)c1OC(C)=O
4. COc1ccnc(C(=O)N[C@H]2COC[C@H](Cc3ccc(C)cc3)[C@@H](OCC(C)C)[C@H](C)OC2=O)c1O
5. CCCCCO[C@@H]1[C@@H](Cc2ccc(C(F)(F)F)cc2)COC[C@H](NC(=O)c2nccc(OC)c2OCOC(C)=O)C(=O)O[C@H]1C
6. CCCCCO[C@@H]1[C@@H](Cc2ccc(F)cc2)COC[C@H](NC(=O)c2nccc(OC)c2O)C(=O)O[C@H]1C
7. CCOCC(=O)OCOc1c(OC)ccnc1C(=O)N[C@H]1COC[C@H](CC2CCCC2)[C@@H](OC(=O)C(C)C)[C@H](C)OC1=O
8. COc1ccnc(C(=O)N[C@H]2COC[C@H](CCc3ccccc3)[C@@H](OCCCC(F)(F)F)[C@H](C)OC2=O)c1O

["80 to 100%", "80 to 100%", "80 to 100%", "80 to 100%", "80 to 100%", "80 to 100%", "80 to 100%", "0 to 80%"]
